system: Staphylococcus aureus; experiment: Antibacterial activity against methicillin-susceptible Staphylococcus aureus clinical isolate after 18 hrs by agar dilution method; format: functional
Please respond with reported MIC for every item in the list.

Asked: Read the entry O=C1O[C@@H](Cn2ccnn2)CN1c1ccc(N2CCOCC2)c(F)c1 and write its reported MIC.
Given back: 0.5 µg/mL

Asked: Please report the measured MIC for CC(C)C(=O)N1CCN(c2ccc(N3C[C@H](Cn4ccnn4)OC3=O)cc2F)CC1
Given back: 1 µg/mL

Asked: Tell us which MIC value is on record for CCCCCCCC(=O)N1CCN(c2ccc(N3C[C@H](Cn4ccnn4)OC3=O)cc2F)CC1
Given back: 4 µg/mL

Asked: Supply recorded MIC for O=C(CC1CC2CCC1C2)N1CCN(c2ccc(N3C[C@H](Cn4ccnn4)OC3=O)cc2F)CC1 (some centres not stated) here.
Given back: 2 µg/mL

Asked: Please list MIC recorded for the molecule CCCCCCCCCCCCCC(=O)N1CCN(c2ccc(N3C[C@H](Cn4ccnn4)OC3=O)cc2F)CC1
Given back: > 16 µg/mL

Asked: Please indicate MIC recorded for CCCCCCCCCCC(=O)N1CCN(c2ccc(N3C[C@H](Cn4ccnn4)OC3=O)cc2F)CC1
Given back: > 16 µg/mL

Asked: Tell me MIC reported for CCCCCCCCCCCCCCCCCC(=O)N1CCN(c2ccc(N3C[C@H](Cn4ccnn4)OC3=O)cc2F)CC1
Given back: > 16 µg/mL

Asked: Tell us which MIC value is on record for CC(=O)NC[C@H]1CN(c2ccc(N3CCOCC3)c(F)c2)C(=O)O1
Given back: 1 µg/mL

Asked: Could you please provide reported MIC for CCCCCCCCC(=O)N1CCN(c2ccc(N3C[C@H](Cn4ccnn4)OC3=O)cc2F)CC1 ? Thanks!
Given back: 8 µg/mL

Asked: Identify measured MIC corresponding to CCCCCC(=O)N1CCN(c2ccc(N3C[C@H](Cn4ccnn4)OC3=O)cc2F)CC1
Given back: 4 µg/mL

Asked: Please report MIC for the following molecule: CCC(=O)N1CCN(c2ccc(N3C[C@H](Cn4ccnn4)OC3=O)cc2F)CC1
Given back: 1 µg/mL

Asked: Quickly give me recorded MIC for CCCCCCCCCCCCCCCC(=O)N1CCN(c2ccc(N3C[C@H](Cn4ccnn4)OC3=O)cc2F)CC1
Given back: > 16 µg/mL

Asked: Using the record for CC(=O)N1CCN(c2ccc(N3C[C@H](Cn4ccnn4)OC3=O)cc2F)CC1 , state its measured MIC.
Given back: 0.5 µg/mL

Asked: Provide measured MIC value, entry: O=C(C1CCCC1)N1CCN(c2ccc(N3C[C@H](Cn4ccnn4)OC3=O)cc2F)CC1
Given back: 1 µg/mL

Asked: State its MIC: O=C(C1CCCCC1)N1CCN(c2ccc(N3C[C@H](Cn4ccnn4)OC3=O)cc2F)CC1
Given back: 1 µg/mL

Asked: Could you please provide reported MIC for CCCCCCC(=O)N1CCN(c2ccc(N3C[C@H](Cn4ccnn4)OC3=O)cc2F)CC1 ? Thanks!
Given back: 2 µg/mL

Asked: Provide MIC value for the following molecule: CCCCCCCCCC(=O)N1CCN(c2ccc(N3C[C@H](Cn4ccnn4)OC3=O)cc2F)CC1
Given back: > 16 µg/mL
